Below is a list of entries, each paired with its recorded abundance fitness value.
B1: Chromodomain-helicase-DNA-binding protein 5, residues 338 to 390; numbered along this chain, Q8TDI0 (parent)
chain: YETDHQDYCEVCQQGGEIILCDTCPRAYHLVCLDPELEKAPEGKWSCPHCEKE

- Variants of: B1
- protocol_text: abundance fitness (aPCA) (normalised: wild type 0, dead -1); higher = more abundant; growth selection in yeast, the domain comes from the species named
- test_parameters: Homo sapiens
Write no unit; give the number alone.

These recorded examples may help you get a feel for the data.
INSERT INTO results (mutation_id, assay_result) VALUES
  ('P41F', -0.164),
  ('C50K', -0.405),
  ('C47R', -0.922),
  ('P35R', -0.096),
  ('C24I', -0.88),
  ('S46W', -0.14),
  ('G15V', -0.143),
  ('S46Y', -0.335),
  ('W45I', -0.146),
  ('L37F', -0.147);

Fill in: abundance fitness of E17G is ___
-0.07

Given the entry I19T , report its measured abundance fitness.
0.303

# input variant: A40S ; wanted: its abundance fitness
0.024
